# Test system: Plasmodium falciparum
# RUN_DESCRIPTION: GSK_TCMDC: Inhibition of Plasmodium falciparum Dd2 in whole red blood cells, using parasite LDH activity as an index of growth. Test compounds present at 2uM
# Format: functional
Classify as follows. Reported Inhibition greater than or equal to 60%: Met. Reported Inhibition below: Not met.

CCC(C)NC(=O)Nc1cccc(-c2cccc(-c3nc4cccc(C)c4[nH]3)c2)c1 (stereo not given)	Not met
Cc1cccc2nc(-c3ccc(-c4ccc(CN5CCC(C(N)=O)CC5)cc4)cc3)[nH]c12.O=C(O)C(F)(F)F	Not met
CCN(CC)C(=O)C1CCN(C(C(=O)N2CCN(CC(=O)N3CCCC3)CC2)c2cc3ccccc3o2)CC1 (stereo not given)	Not met
CC1(C)CCCC(=Cc2ccc(Br)cc2)C1(O)Cn1ccnc1 (stereo not given)	Met
CCN1CCN(CCCNc2c3ccc(Cl)cc3nc3ccc(O)cc23)CC1	Not met
CC1CNC(c2ccc(NC(=O)Nc3ccc(C4=NC(C)CN4)cc3)cc2)=N1.Cl (stereo not given)	Met
CCOc1cc[nH]c(=O)n1	Met
CCCN(Cc1nnc(-c2cccs2)o1)C(=O)C1COc2ccccc2O1 (stereo not given)	Not met

As a next step, examine the compound that follows.
Problem: Is it the case that CNc1ccc(CNCc2cccc(-c3ccc(-c4nc5cc(C(F)(F)F)ccc5[nH]4)cc3)c2)cc1.O=C(O)C(F)(F)F has Inhibition reaching or exceeding 60%?
Solution: Met
